# System: Histophilus somni
# METHOD DESCRIPTION: minimum inhibitory concentration (MIC)
# CONDITION NOTES: isolate (source animal id): 121
VALUE KIND: minimum inhibitory concentration

Quick one: minimum inhibitory concentration for "CC1(C)S[C@@H]2[C@H](NC(=O)[C@H](N)c3ccccc3)C(=O)N2[C@H]1C(=O)O" ?
≤ 0.25 µg/mL

----------
# Tested on: Mannheimia haemolytica
# METHOD DESCRIPTION: minimum inhibitory concentration (MIC)
# CONDITION NOTES: isolate (source animal id): 233
Quick reference: minimum inhibitory concentration of the listed items.
Use µg/mL as the unit, but write only the number.

Reference set, count: 2
CCCNC[C@]1(O)[C@H](C)O[C@@H](O[C@H]2[C@H](C)[C@@H](O[C@@H]3O[C@H](C)C[C@H](N(C)C)[C@H]3O)[C@](C)(O)C[C@@H](C)CN[C@H](C)[C@@H](O)[C@](C)(O)[C@@H](CC)OC(=O)[C@@H]2C)C[C@@]1(C)OC [Tulathromycin] : 16
CCCN1C[C@H](C)[C@@H](O)[C@](C)(O)[C@@H](CC)OC(=O)[C@H](C)[C@@H](O[C@H]2C[C@@](C)(OC)[C@@H](O)[C@H](C)O2)[C@H](C)[C@@H](O[C@@H]2O[C@H](C)C[C@H](N(C)C)[C@H]2O)[C@](C)(O)C[C@H]1C [Gamithromycin] : 2

Next compound, please.
Quick one: minimum inhibitory concentration for CN(C)[C@@H]1C(O)=C(C(N)=O)C(=O)[C@@]2(O)C(O)=C3C(=O)c4c(O)cccc4[C@@](C)(O)[C@H]3C[C@@H]12 [Tetracycline] ?
4

These data points were gathered from the supplement of paper PMC8612539.
